MEASUREMENT NOTES: qHTS assay to identify small molecule agonists of the estrogen related receptor (ERR) signaling pathway from Tox21 library (AID 1224849); note: % is set by controls: 0 for no effect and ±100 for the full control effect; nearly all actives have a fitted effect of over 15% in size
CONDITIONS USED: ERR reporter cell line, ONE-Glo luciferase, 18 h; at 42.5 µM (top of the series)
READOUT KIND: activity change, positive = activation (%)
Give the value, in units of %, as a plain number.

Consider the worked cases shown below.
COMPOUND: CC(C)(C)CC(C)(C)c1ccc(OCCOCC[N+](C)(C)Cc2ccccc2)cc1
UNIT INFO: %
activity change, positive = activation: -58.4

COMPOUND: Nc1c2ccccc2nc2ccccc12
UNIT INFO: %
activity change, positive = activation: -23

So what's the measured activity change, positive = activation for this one? COC(=O)C1=C(C)NC(C)=C(C(=O)OCC(C)C)C1c1ccccc1[N+](=O)[O-] (centres undefined)
-46.2

So what's the measured activity change, positive = activation for this one? `Oc1ccc(Cl)cc1Sc1cc(Cl)ccc1O`
-51.1

----------
MEASUREMENT NOTES: qHTS assay for small molecule agonists of the p53 signaling pathway - cell viability (AID 651633); note: potency is the fitted concentration of half-maximal effect; nearly all actives have a fitted effect of over 30% in size
CONDITIONS USED: p53RE-bla HCT-116 viability, ATP luminescence, 16 h; series mostly up to 83.3 µM
Results filed as inconclusive are left out. Calls of active or inactive are those of the source. The call rests on the fitted dose curve.
Give one outcome, nothing more. List: active, inactive

Please state the recorded outcome for this compound: `O=C(Nc1cccc(Cl)c1)OCC#CCCl`
active

Please state the recorded outcome for this compound: CC1=C(C(=O)OC(C)C)C(c2cccc([N+](=O)[O-])c2)C(C(=O)OC2CN(C(c3ccccc3)c3ccccc3)C2)=C(N)N1 (configuration not stated)
active

Please state the recorded outcome for this compound: `CCCCCCCCCCCCCCCCCC[N+](C)(C)C`
active

----------
MEASUREMENT NOTES: qHTS assay to identify small molecule antagonists of the estrogen related receptor signaling pathway with the pleiotropic PPARgamma coactivator (PGC) from Tox21 10K library (AID 1224841); note: actives are mostly falling curves and most rising ones were filed inactive; nearly all actives have a fitted effect of over 50% in size
CONDITIONS USED: PGC/ERR reporter cell line, ONE-Glo luciferase, 18 h; series mostly up to 92.4 µM
Records with an inconclusive call do not appear. Calls of active or inactive are those of the source. How the calls were made is not given here.
Give one outcome, nothing more. List: active, inactive

Observe how each entry below is paired with its result.
MOLECULE: Nc1nc2ccccc2n1Cc1ccc(F)cc1
LABEL: inactive
//
MOLECULE: N/C(=N\N=C\c1ccc(Cl)cc1)N/N=C/c1ccc(Cl)cc1
LABEL: inactive
//
MOLECULE: COc1ccc(-c2ccc3cc(C(=O)O)ccc3c2)cc1C12CC3CC(CC(C3)C1)C2
LABEL: inactive
//
MOLECULE: ON=C1CCCC1
LABEL: active
//
MOLECULE: C[C@H]1[C@H]2CC[C@H]3[C@@H]4CC=C5C[C@@H](N(C)C)CC[C@]5(C)[C@H]4CC[C@]23CN1C
LABEL: inactive
//
MOLECULE: O=S1(=O)CC(Cl)(Cl)C(Cl)(Cl)C1
LABEL: active
//
MOLECULE: CN1CCC(Nc2ncc3ncnc(Nc4ccc(F)c(Cl)c4)c3n2)CC1
LABEL: inactive
//
MOLECULE: CC(=O)N1CCN(c2ccc(OC[C@H]3CO[C@](Cn4ccnc4)(c4ccc(Cl)cc4Cl)O3)cc2)CC1
LABEL: active
//
MOLECULE: OCCN(CCO)c1nc(N2CCCCC2)c2nc(N(CCO)CCO)nc(N3CCCCC3)c2n1
LABEL: active
//
MOLECULE: O=c1c(-c2ccccc2)c1-c1ccccc1
LABEL: active

Please state the recorded outcome for this molecule: CCC1OCC(COc2ccc(Oc3ccccc3)cc2)O1 (stereo unspecified)
inactive

Please state the recorded outcome for this molecule: `N=C1N=C(N)c2cc3ccccc3cc21`
inactive

Please state the recorded outcome for this molecule: `CCN(CCC#N)c1ccc(N=Nc2c(Cl)cc([N+](=O)[O-])cc2Cl)cc1`
inactive

Please state the recorded outcome for this molecule: `C/C=C(\C)C(=O)OCc1ccccc1`
inactive

Please state the recorded outcome for this molecule: CCCN(CCC)C(=O)C(CCC(=O)OCCCN1CCN(CCOC(=O)Cc2c(C)n(C(=O)c3ccc(Cl)cc3)c3ccc(OC)cc23)CC1)NC(=O)c1ccccc1 (stereo unspecified)
active

----------
MEASUREMENT NOTES: qHTS assay to identify small molecule antagonists of the thyroid receptor (TR) signaling pathway (AID 743065); note: nearly all actives have a fitted effect of over 55% in size
CONDITIONS USED: GH3.TRE-Luc, T3-stimulated luciferase inhibition, 23.5 h; series mostly up to 70.3 µM
Records with an inconclusive call do not appear. Activity calls are given as the source filed them. The call rests on the fitted dose curve; in most records, active means well fitted inhibition curve with a large enough effect in the repeat runs; inconclusive means weak or mixed curves; inactive means no such curve, though single readings can be large or run the other way.
Give one outcome, nothing more. List: active, inactive

Observe how each entry below is paired with its result.
COMPOUND: COc1cc(/C=C/C(=O)O[C@H]2CC[C@]34C[C@]35CC[C@]3(C)[C@@H]([C@H](C)CCC=C(C)C)CC[C@@]3(C)[C@@H]5CC[C@H]4C2(C)C)ccc1O
LABEL: inactive
--
COMPOUND: O=C(O)c1ccc(Cl)c(Cl)c1
LABEL: inactive
--
COMPOUND: CCc1cc(Cc2cc(CC)cc(C(C)(C)C)c2O)c(O)c(C(C)(C)C)c1
LABEL: active
--
COMPOUND: N=C1N=C(N)c2ccccc21
LABEL: active
--
COMPOUND: NC(=O)N1C(=O)C(C(=O)c2cc(Cl)cs2)c2cc(F)c(Cl)cc21 (configuration not stated)
LABEL: active

Please state the recorded outcome for this compound: `O=c1cccccc1O`
active

Please state the recorded outcome for this compound: `Clc1ccc2cc3ccccc3cc2c1`
inactive

Please state the recorded outcome for this compound: `C1CCCC1`
inactive

Please state the recorded outcome for this compound: c1cc(C(c2ccc(OCC3CO3)cc2)c2ccc(OCC3CO3)cc2)ccc1OCC1CO1 (configuration not stated)
active

Please state the recorded outcome for this compound: `COc1ccc(CN2CCN(C(c3ccc(F)cc3)c3ccc(F)cc3)CC2)c(OC)c1OC`
active

Please state the recorded outcome for this compound: `Cc1cc2c(cc1C(F)(F)F)N(C(=O)Nc1ccc(Oc3cccnc3C)nc1)CC2`
active

----------
MEASUREMENT NOTES: qHTS assay to identify small molecule agonists of H2AX (AID 1224845); note: potency is the fitted concentration of half-maximal effect
CONDITIONS USED: CHO-K1 phospho-H2AX Ser139 HTRF, 3 h; series mostly up to 154 µM
Inconclusive results are not listed. The source made the active and inactive calls. Calls come from the whole dose curve; as a rule, active = well fitted activation curve with a large enough effect in the signal ratio in the repeat runs (not every such curve was filed as active); inconclusive = weak or mixed curves; inactive = flat fitted curve, though single readings scatter; the % refers to the signal ratio.
READOUT KIND: Potency

SAMPLE SMILES: CCCCCCCCCCCCCCCC[N+](C)(C)CCN(Cc1ccc(OC)cc1)c1ncccn1
READOUT KIND: Potency
RESULT: inactive
--
SAMPLE SMILES: C1CCCC1
READOUT KIND: Potency
RESULT: inactive
--
SAMPLE SMILES: CC[C@H](c1ccc(O)cc1)[C@@H](CC)c1ccc(O)cc1
READOUT KIND: Potency
RESULT: inactive
--
SAMPLE SMILES: Cc1onc(-c2c(Cl)cccc2Cl)c1C(=O)N[C@@H]1C(=O)N2[C@@H]1SC(C)(C)[C@@H]2C(=O)O
READOUT KIND: Potency
RESULT: inactive
--
SAMPLE SMILES: Oc1ccc(Cl)cc1Sc1cc(Cl)ccc1O
READOUT KIND: Potency
RESULT: inactive

// next entry
So what's the measured Potency for this one? `CCc1cc(Cc2cc(CC)cc(C(C)(C)C)c2O)c(O)c(C(C)(C)C)c1`
50.5 µM (active)

----------
MEASUREMENT NOTES: qHTS assay for small molecule activators of the heat shock response signaling pathway - cell viability counter screen (AID 743209); note: nearly all actives have a fitted effect of over 50% in size; note: potency is the fitted concentration of half-maximal effect
CONDITIONS USED: HSE-bla HeLa viability, CellTiter-Glo luminescence, 5 h; series mostly up to 62.6 µM
Inconclusive results are not listed. Active and inactive are the calls of the source. Calls come from the whole dose curve; as a rule, active = well fitted cell-killing curve with a large enough effect in the repeat runs; inconclusive = weak or mixed curves, or effect the other way; inactive = no such curve, though single readings can be large or run the other way.
READOUT KIND: Potency

Consider the worked cases shown below.
SAMPLE SMILES: CCOC(=O)/C=C(C)/C=C/C=C(C)/C=C/c1c(C)cc(OC)c(C)c1C
READOUT KIND: Potency
RESULT: inactive

SAMPLE SMILES: CCC1=C[C@@H]2CN(C1)Cc1c([nH]c3ccccc13)[C@@](C(=O)OC)(c1cc3c(cc1OC)N(C)[C@H]1[C@@](O)(C(=O)OC)[C@H](OC(C)=O)[C@]4(CC)C=CCN5CC[C@]31[C@@H]54)C2
READOUT KIND: Potency
RESULT: inactive

SAMPLE SMILES: CC(C)=CCOc1ccc(/C=C/C(=O)c2ccc(OCC=C(C)C)cc2OCC(=O)O)cc1
READOUT KIND: Potency
RESULT: inactive

SAMPLE SMILES: CCCCCCCCCCCC[N+](C)(C)CCCCCCCCCCCC
READOUT KIND: Potency
RESULT: 43.6 µM (active)

// next entry
So what's the measured Potency for this one? `Oc1ccc(N=Nc2ccccc2)cc1`
inactive
